subject.of.test: SAA binding to heparin (HS-GAG) (Homo sapiens)
Sequence (P0DJI8 19-122): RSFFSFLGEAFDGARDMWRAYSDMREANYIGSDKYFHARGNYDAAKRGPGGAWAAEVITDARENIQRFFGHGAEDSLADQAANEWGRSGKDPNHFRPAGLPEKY
assay.notes: Inhibition of SAA binding to immobilized heparin-BSA (ELISA)
Set-up: species or system porcine
condition.details: read-out: Serum Amyloid A/Heparin Activity (% inhibition class)
Give measured inhibition at 30 µM for each item. Keep answers brief.

A selection of reference data follows.
smiles.text	measured.metric	obs.value
CN1CCN(c2cc(Nc3ccnc4cc(Cl)ccc34)ccn2)CC1	inhibition at 30 µM	> 30%
C/C(=N\Nc1ncnc2cc(Cl)ccc12)c1cccc(N2CCN(C)CC2)c1	inhibition at 30 µM	< 30%
C(=N\Nc1ccc2c3c(cccc13)CC2)/c1ccc(-n2ccnc2)cc1	inhibition at 30 µM	< 30%

Could I get inhibition at 30 µM for every one of these entries?
1. C/C(=N\Nc1ncnc2cc(Cl)ccc12)c1ccc(-n2cncn2)nc1
2. Clc1ccc2c(N/N=C/c3ccc(-n4cccn4)cc3)ccnc2c1

Ans.
1: > 30%; 2: > 30%

----------
subject.of.test: Amyloid-beta(1-42) oligomer binding to purified human brain membranes (Homo sapiens, UniProt P05067)
Sequence (P05067 672-713): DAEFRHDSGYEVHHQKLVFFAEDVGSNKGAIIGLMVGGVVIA
Where a name gives a salt, the structure may show the parent alone.
Please provide measured IC50 for the entries that follow.

Sample answers from the record:
molecule	IC50
Clc1ccc2c(N/N=C/c3ccc(-n4ccnc4)nc3)ccnc2c1 [Compound 14, hydrochloride]	6.03 µM
C/C(=N\Nc1ncnc2cc(Cl)ccc12)c1ccc(-n2cc(C)nc2C)nc1 [Compound 27, hydrochloride]	3.97 µM
Cc1ncn(-c2ccc(/C=N\Nc3ncnc4cc(Cl)ccc34)cn2)c1C [Compound 15, hydrochloride]	7.05 µM

Now let's try a different one.
Qu. Given the entry "Cc1cc(-n2ccnc2)ccc1/C=N/Nc1ccnc2cc(Cl)ccc12" , report its measured IC50.
Ans. 2.97 µM

----------
subject.of.test: Amyloid-beta(1-40) binding to heparin (HS-GAG) (Homo sapiens, UniProt P05067)
Sequence (P05067 672-711): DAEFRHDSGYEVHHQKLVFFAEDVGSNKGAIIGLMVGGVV
assay.notes: Inhibition of Amyloid-beta(1-40) binding to immobilized heparin-BSA (ELISA)
Design: species or system porcine
condition.details: read-out: Abeta40/Heparin Activity (% inhibition class)
Structures can show the parent of a compound that is named as a salt.
measured.metric: inhibition at 30 µM

Worked examples follow.
compound	inhibition at 30 µM
COc1cc2nccc(N/N=C/c3ccc(-n4ccnc4)c(OC)c3)c2cc1OC [Compound 13, phosphate]	< 30%
C[n+]1ccn(-c2ccc(Nc3ncnc4cc(Cl)ccc34)cn2)c1	< 30%
CC(=NNc1ccnc2cc(Cl)ccc12)c1ccc(-n2cc[n+](C)c2)nc1	> 30%
Fc1cc(/C=N/Nc2ccnc3cc(Cl)ccc23)ccc1-n1ccnc1 [Compound 35, hydrochloride]	< 30%
CN1CCN(c2cc(Nc3ccnc4cc(Cl)ccc34)ccn2)CC1	< 30%

Hi there! I need inhibition at 30 µM for each item below, if you can.
1. C(=N\Nc1ccc2c3c(cccc13)CC2)/c1ccc(-n2ccnc2)cc1
2. C/C(=N\Nc1ncnc2cc(Cl)ccc12)c1cccc(N2CCN(C)CC2)c1
3. COc1cc(Nc2cncc3cc(Cl)ccc23)cnc1-n1cnc(C)c1C
4. COc1cc2nccc(NN=Cc3ccc(-n4ccnc4)c(C)c3)c2cc1OC [Compound 11, hydrochloride]
5. Cc1ncn(-c2ncc(Nc3ncnc4cc(Cl)ccc34)cc2O)c1C

Ans.
1. < 30%
2. > 30%
3. < 30%
4. > 30%
5. < 30%

----------
subject.of.test: TDP-43 binding to heparin (HS-GAG) (Homo sapiens)
Sequence (Q13148 whole entry): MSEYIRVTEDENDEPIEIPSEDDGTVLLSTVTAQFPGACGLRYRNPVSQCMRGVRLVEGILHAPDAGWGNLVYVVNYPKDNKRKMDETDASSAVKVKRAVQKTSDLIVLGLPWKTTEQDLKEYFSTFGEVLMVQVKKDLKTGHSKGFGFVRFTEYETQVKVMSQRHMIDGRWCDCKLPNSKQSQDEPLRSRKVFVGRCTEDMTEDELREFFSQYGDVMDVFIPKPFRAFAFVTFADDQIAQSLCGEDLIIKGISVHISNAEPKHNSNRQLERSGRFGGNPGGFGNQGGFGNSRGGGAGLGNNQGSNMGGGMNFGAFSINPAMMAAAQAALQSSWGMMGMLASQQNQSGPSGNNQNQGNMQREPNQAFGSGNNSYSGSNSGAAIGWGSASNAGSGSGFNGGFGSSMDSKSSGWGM
assay.notes: Inhibition of TDP-43 binding to immobilized heparin-BSA (ELISA)
Design: species or system porcine
condition.details: TDP-43, heparin-BSA; read-out: TDP43/Heparin Activity (IC-50)
Structures can show the parent of a compound that is named as a salt.
measured.metric: IC50 (µM)
Give bare numbers, in µM.

Study these solved cases before continuing.
compound	measured.metric	obs.value
C/C(=N\Nc1nncc2cc(Cl)ccc12)c1ccc(-n2cc(C)nc2C)nc1	IC50	0.89
C/C(=N\Nc1ncnc2cc(Cl)ccc12)c1ccc(-n2cc(C)nc2C)nc1 [Compound 27, hydrochloride]	IC50	2.18
C/C(=N\Nc1ncnc2cc(F)ccc12)c1ccc(-n2cnc(C)c2C)nc1	IC50	4.6
C/C(=N\Nc1ncnc2cc(Cl)ccc12)c1ccc(-n2cc(C)nc2C)nc1 [Compound 18]	IC50	4.77
Cc1cc(-n2ccnc2)ccc1/C=N/Nc1ccnc2cc(Cl)ccc12	IC50	2.92

Please go through the list and note IC50 for each compound.
1. CC(=NNc1ncnc2cc(Cl)ccc12)c1ccnc(-n2cnc(C)c2C)c1
2. Clc1ccc2c(Nc3ccc(-n4ccnc4)nc3)ncnc2c1

Ans.
1. 5.73
2. 4.25
